- TARGET_ENTITY: UniProt:Q07912
- PROCEDURE_TEXT: ACK1 ELISA: phosphorylation of AKT-derived peptide
- Format: biochemical
- EXPERIMENTAL_PARAMETERS: 10 μM; Table 1, replicate values listed
MEASURED_QUANTITY: % Inhibition at 10 μM (ELISA) (%)

CCOC(=O)C1CCN(c2ccc(Nc3ncc(Cl)c(NC[C@H]4CCCO4)n3)cc2)CC1.Cl: 65
CCCS(=O)(=O)c1ccccc1Nc1nc(Nc2ccc(O)cc2)ncc1C(=O)Nc1c(F)cccc1Cl: 58
Brc1cnc(Nc2ccc(C3CCNCC3)cc2)nc1NCC1CCCO1.Cl (centres unmarked): 85
Clc1cnc(Nc2ccc(CN3CCCCC3)cc2)nc1NCC1CCCO1 (centres unmarked): 72
CN1CCN(c2ccc(Nc3ncc(Cl)c(NC[C@@H]4CCCO4)n3)cc2)CC1: 94
CN(C)CCNC(=O)CCc1ccc(Nc2ncc(Cl)c(NCC3CCCO3)n2)cc1.Cl (centres unmarked): 74
Cl.O=C(O)CCc1ccc(Nc2ncc(Cl)c(NC[C@@H]3CCCO3)n2)cc1: 72
CC(C)S(=O)(=O)c1ccccc1Nc1nc(Nc2ccc(O)cc2)ncc1C(=O)Nc1c(F)cccc1Cl: 50
CCOC(=O)C1CCN(c2ccc(Nc3ncc(Br)c(NCC4CCCO4)n3)cc2)CC1.Cl (centres unmarked): 65
CC(C)S(=O)(=O)c1ccccc1Nc1nc(Nc2ccc(N3CCOCC3)cc2)ncc1C(=O)Nc1c(F)cccc1Cl: 65
Cl.O=C(O)CCc1ccc(Nc2ncc(Br)c(NCC3CCCO3)n2)cc1 (centres unmarked): 75
Brc1cnc(Nc2ccc(N3CCOCC3)cc2)nc1NCC1CCCO1.Cl (centres unmarked): 90
O=C(O)C1CCN(c2ccc(Nc3ncc(Cl)c(NC[C@H]4CCCO4)n3)cc2)CC1: 95
Cl.O=C(Nc1c(F)cccc1Cl)c1cnc(Nc2ccc(N3CCOCC3)cc2)nc1NCC1CCCO1 (centres unmarked): 88
CC(C)S(=O)(=O)c1ccccc1Nc1nc(Nc2ccc(S(N)(=O)=O)cc2)ncc1C(=O)Nc1c(F)cccc1Cl: 6
COc1cc(N2CCOCC2)ccc1Nc1ncc(Cl)c(NCC2CCCO2)n1 (centres unmarked): 82
CN1CCN(c2ccc(Nc3nc(NCC4CCCO4)c4ccccc4n3)cc2)CC1 (centres unmarked): 14
Cl.Clc1cnc(Nc2ccc(C3CCNCC3)cc2)nc1NC[C@H]1CCCO1: 76
CN1CCN(c2ccc(Nc3nccc(NCC4CCCO4)n3)cc2)CC1 (centres unmarked): 13
Cl.Clc1cnc(Nc2ccc(C3CCNCC3)cc2)nc1NC[C@@H]1CCCO1: 76
CCNC(=O)C1CCN(c2ccc(Nc3ncc(Cl)c(NC[C@@H]4CCCO4)n3)cc2)CC1: 61
Cl.Clc1cnc(Nc2ccc(C3CCNCC3)cc2)nc1NCC1CCCO1 (centres unmarked): 80
Cl.O=C(O)CCc1ccc(Nc2ncc(Cl)c(NCC3CCCO3)n2)cc1 (centres unmarked): 73
O=C(O)C1CCN(c2ccc(Nc3ncc(Cl)c(NC[C@@H]4CCCO4)n3)cc2)CC1: 94
O=C(O)CCC(=O)N1CCN(c2ccc(Nc3ncc(C(=O)Nc4c(F)cccc4Cl)c(NCC4CCCO4)n3)cc2)CC1 (centres unmarked): 93
Oc1ccc(Nc2ncc(F)c(NCC3CCCO3)n2)cc1 (centres unmarked): 33
Cl.O=C(O)CCCc1ccc(Nc2ncc(Cl)c(NC[C@H]3CCCO3)n2)cc1: 65
CCOC(=O)C1CCN(c2ccc(Nc3ncc(C(=O)Nc4c(F)cccc4Cl)c(NCC4CCCO4)n3)cc2)CC1.Cl (centres unmarked): 73
COc1ccc(Nc2ncc(Br)c(NCC3CCCO3)n2)cc1.Cl (centres unmarked): 67
CCOC(=O)C1CCN(c2ccc(Nc3ncc(Cl)c(NC[C@@H]4CCCO4)n3)cc2)CC1.Cl: 69

----------
MEASURED_QUANTITY: melting point

CCSc1ccccc1Nc1nc(Nc2ccc(O)cc2)ncc1C(=O)Nc1c(F)cccc1Cl: 233 °C (dec.)
CN1CCN(c2ccc(Nc3ncc(F)c(NCC4CCCO4)n3)cc2)CC1 (stereo not shown): 86 °C (dec.)
CC(C)Sc1ccccc1Nc1nc(Cl)ncc1C(=O)Nc1c(F)cccc1Cl: 202 to 205 °C
CCCSc1ccccc1Nc1nc(Cl)ncc1C(=O)Nc1c(F)cccc1Cl: 197 to 200 °C
CS(=O)(=O)c1ccccc1Nc1nc(Nc2ccc(O)cc2)ncc1C(=O)Nc1c(F)cccc1Cl: 238 °C (dec.)
CC(C)Sc1ccccc1Nc1nc(Nc2ccc(O)cc2)ncc1C(=O)Nc1c(F)cccc1Cl: 232 °C (dec.)
Cl.O=C(O)CCCc1ccc(Nc2ncc(Cl)c(NC[C@H]3CCCO3)n2)cc1: 180 °C (dec.)
COc1ccc(Nc2ncc(C(=O)Nc3c(F)cccc3Cl)c(Nc3ccccc3S(C)(=O)=O)n2)cc1: 267 °C (dec.)
CCS(=O)(=O)c1ccccc1Nc1nc(Cl)ncc1C(=O)Nc1c(F)cccc1Cl: 230 to 233 °C
CC(C)S(=O)(=O)c1ccccc1Nc1nc(Nc2ccc(S(N)(=O)=O)cc2)ncc1C(=O)Nc1c(F)cccc1Cl: 192 °C (dec.)
CC(C)(C)OC(=O)N1CCN(c2ccc(Nc3ncc(Br)c(NCC4CCCO4)n3)cc2)CC1.Cl (stereo not shown): 124 °C (dec.)
COc1ccc(CNc2ncc(C(=O)Nc3c(F)cccc3Cl)c(Nc3ccccc3S(=O)(=O)C(C)C)n2)cc1: 227 °C (dec.)
O=C(Nc1c(F)cccc1Cl)c1cnc(Cl)nc1NCC1CCCO1 (stereo not shown): 142 °C (dec.)
Cl.O=C(O)c1cc(Nc2ncc(Br)c(NCC3CCCO3)n2)ccc1O (stereo not shown): 211 °C (dec.)
CCCS(=O)(=O)c1ccccc1Nc1nc(Cl)ncc1C(=O)Nc1c(F)cccc1Cl: 226 to 229 °C
Cl.O=C(O)c1cc(Nc2ncc(C(=O)Nc3c(F)cccc3Cl)c(NCC3CCCO3)n2)ccc1O (stereo not shown): 298 °C (dec.)

----------
# key: entry, value: melting point
MEASURED_QUANTITY: melting point

COc1ccc(Nc2ncc(C(=O)Nc3c(F)cccc3Cl)c(Nc3ccccc3S(=O)(=O)C(C)C)n2)cc1 [YL7-045-1]: 246 °C (dec.)
Cl.O=C(Nc1c(F)cccc1Cl)c1cnc(Nc2ccc(O)c(Cl)c2)nc1NCC1CCCO1 (stereo not shown) [YL8-009-1]: 158 °C (dec.)
CCCS(=O)(=O)c1ccccc1Nc1nc(Nc2ccc(OC)cc2)ncc1C(=O)Nc1c(F)cccc1Cl [YL7-055-1]: 234 to 235 °C
CSc1ccccc1Nc1nc(Nc2ccc(O)cc2)ncc1C(=O)Nc1c(F)cccc1Cl [YL7-039-2]: 246 °C (dec.)

----------
- TARGET_ENTITY: ACK1 (Homo sapiens)
- Sequence (Q07912 whole entry): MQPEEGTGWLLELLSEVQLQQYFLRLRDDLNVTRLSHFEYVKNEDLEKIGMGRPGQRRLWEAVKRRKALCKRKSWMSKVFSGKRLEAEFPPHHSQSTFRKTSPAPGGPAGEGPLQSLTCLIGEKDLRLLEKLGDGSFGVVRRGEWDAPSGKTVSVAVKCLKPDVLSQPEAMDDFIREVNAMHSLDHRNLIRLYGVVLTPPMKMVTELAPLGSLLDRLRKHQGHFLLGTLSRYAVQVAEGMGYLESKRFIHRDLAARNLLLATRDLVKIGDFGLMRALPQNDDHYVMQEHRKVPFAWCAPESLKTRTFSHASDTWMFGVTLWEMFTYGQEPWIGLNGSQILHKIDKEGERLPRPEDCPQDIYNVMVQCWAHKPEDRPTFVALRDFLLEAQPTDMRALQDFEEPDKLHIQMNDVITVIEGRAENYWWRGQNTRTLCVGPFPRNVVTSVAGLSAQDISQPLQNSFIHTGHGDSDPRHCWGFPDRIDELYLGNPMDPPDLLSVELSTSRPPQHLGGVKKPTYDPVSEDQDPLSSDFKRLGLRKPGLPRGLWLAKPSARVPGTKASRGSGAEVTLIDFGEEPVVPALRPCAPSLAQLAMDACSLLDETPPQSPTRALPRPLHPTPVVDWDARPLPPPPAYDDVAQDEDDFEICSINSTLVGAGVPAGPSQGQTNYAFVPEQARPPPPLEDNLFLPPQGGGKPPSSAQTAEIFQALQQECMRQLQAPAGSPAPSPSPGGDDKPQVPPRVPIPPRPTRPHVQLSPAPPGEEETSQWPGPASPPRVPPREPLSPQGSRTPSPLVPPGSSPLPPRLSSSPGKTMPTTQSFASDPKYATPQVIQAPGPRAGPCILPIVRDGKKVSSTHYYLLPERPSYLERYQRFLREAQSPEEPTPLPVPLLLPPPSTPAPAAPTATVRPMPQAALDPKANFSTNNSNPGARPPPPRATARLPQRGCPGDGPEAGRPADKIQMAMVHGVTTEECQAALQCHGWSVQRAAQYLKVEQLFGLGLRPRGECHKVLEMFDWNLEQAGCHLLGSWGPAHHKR
- PROCEDURE_TEXT: ACK1 ELISA: phosphorylation of AKT-derived peptide
- Type: biochemical
- EXPERIMENTAL_PARAMETERS: 10 μM; Table 1, replicate values listed; read-out: % Inhibition at 10 μM (ELISA)
inhibition at 10 µM values for the compounds below.
MEASURED_QUANTITY: inhibition at 10 µM (%)

Cl.O=C(Nc1c(F)cccc1Cl)c1cnc(Nc2ccc(N3CCC(C(=O)O)CC3)cc2)nc1NCC1CCCO1 (stereo not drawn): 98
Oc1ccc(Nc2ncc(F)c(NCC3CCCO3)n2)cc1 (stereo not drawn): 53
O=C(Nc1c(F)cccc1Cl)c1cnc(Cl)nc1NCC1CCCO1 (stereo not drawn): 0
Cl.Clc1cnc(Nc2ccc(C3CCNCC3)cc2)nc1NCC1CCCO1 (stereo not drawn): 79
Cl.O=C(O)CCCc1ccc(Nc2ncc(Cl)c(NC[C@H]3CCCO3)n2)cc1: 55
CCCSc1ccccc1Nc1nc(Cl)ncc1C(=O)Nc1c(F)cccc1Cl: 0
CCOC(=O)C1CCN(c2ccc(Nc3ncc(Cl)c(NCC4CCCO4)n3)cc2)CC1.Cl (stereo not drawn) [YL8-047, hydrochloride]: 65
CN1CCN(c2ccc(Nc3nccc(NCC4CCCO4)n3)cc2)CC1 (stereo not drawn): 19
Brc1cnc(Nc2ccc(N3CCOCC3)cc2)nc1NCC1CCCO1.Cl (stereo not drawn): 88

----------
- TARGET_ENTITY: ACK1 (Homo sapiens)
- PROCEDURE_TEXT: 32P Hotspot assay (Reaction Biology), ACK1 IC50
- Assay type: biochemical
- EXPERIMENTAL_PARAMETERS: Table 1, unit inferred; (RB) = Reaction Biology; replicates listed; read-out: IC50
Where a name gives a salt, the structure may show the parent alone.
Criterion: IC50 strictly less than 50 nM. Met: condition met. Not met: condition not met.

Cl.O=C(Nc1c(F)cccc1Cl)c1cnc(Nc2ccc(C3CCNCC3)cc2)nc1NCC1CCCO1 (centres unmarked): condition not met
O=C(Nc1c(F)cccc1Cl)c1cnc(Nc2ccc(N3CCNCC3)cc2)nc1NCC1CCCO1 (centres unmarked) [YL9-162, TFA salt]: condition met
Clc1cnc(Nc2ccc(N3CCOCC3)cc2)nc1NC[C@H]1CCCO1: condition met
Cc1cc(Nc2ncc(Cl)c(Nc3ccccc3S(=O)(=O)C(C)C)n2)c(OC(C)C)cc1C1CCNCC1 [LDK, reference compound]: condition not met
O=C(O)C1CCN(c2ccc(Nc3ncc(Cl)c(NC[C@@H]4CCCO4)n3)cc2)CC1: condition not met

Cited source for all entries: patent US9850216B2
